Quick list: viability at 1.5 h, 100 µM per entry.
Experiment: Cytotoxicity against human hepatocytes assessed as cell viability at 100 uM after 90 mins by MTT assay relative to control
Assay type: cell-based, Hepatocyte
Details: read-out: Activity

[
  {
    "compound": "Cc1c(C)c2c(c(C)c1CCCCCCN)CCC(C)(COc1ccc(/C=C3\\SC(=O)NC3=O)cc1)O2.O=C(O)C(F)(F)F (racemic)",
    "viability at 1.5 h, 100 µM (%)": 83.2
  },
  {
    "compound": "CC1(CN2C(=O)S/C(=C\\c3cc(Br)c(O)c(Br)c3)C2=O)CCCCC1",
    "viability at 1.5 h, 100 µM (%)": 42.1
  },
  {
    "compound": "Cc1c(C)c2c(c(C)c1OC(=O)CCCCCCCN)CCC(C)(COc1ccc(/C=C3\\SC(=O)N(C)C3=O)cc1)O2 (racemic)",
    "viability at 1.5 h, 100 µM (%)": 84.5
  },
  {
    "compound": "Cc1c(C)c2c(c(C)c1O)CCC(C)(CN1C(=O)S/C(=C\\c3ccc(O)cc3)C1=O)O2 (racemic)",
    "viability at 1.5 h, 100 µM (%)": 110
  }
]

---

Assay: Cytotoxicity against human hepatocytes assessed as cell viability at 100 uM after 90 mins by MTT assay relative to control
Assay type: cell-based, Hepatocyte
Details: read-out: Activity
Quick list: viability at 1.5 h, 100 µM per entry.

[
  {
    "compound": "Cc1c(C)c2c(c(C)c1O)CCC(C)(COc1ccc(CC3SC(=O)NC3=O)cc1)O2 (stereo not given)",
    "viability at 1.5 h, 100 µM, %": 52.2
  },
  {
    "compound": "Cc1c(C)c2c(c(C)c1OC(=O)CCCCCCCNC(=O)OC(C)(C)C)CCC(C)(COc1ccc(/C=C3\\SC(=O)NC3=O)cc1)O2 (stereo not given)",
    "viability at 1.5 h, 100 µM, %": 79.3
  },
  {
    "compound": "Cc1c(C)c2c(c(C)c1CCCCCCNC(=O)OC(C)(C)C)CCC(C)(COc1ccc(/C=C3\\SC(=O)NC3=O)cc1)O2 (racemic)",
    "viability at 1.5 h, 100 µM, %": 85.1
  },
  {
    "compound": "O=C1S/C(=C\\c2ccc(O)cc2)C(=O)N1C/C=C/c1ccccc1",
    "viability at 1.5 h, 100 µM, %": 88.8
  },
  {
    "compound": "Cc1c(C)c2c(c(C)c1CCCCCCN)CCC(C)(COc1ccc(/C=C3\\SC(=O)N(C)C3=O)cc1)O2.O=C(O)C(F)(F)F (racemic)",
    "viability at 1.5 h, 100 µM, %": 82.6
  }
]

---

Test: Cytotoxicity against human hepatocytes assessed as cell viability at 200 uM after 90 mins by MTT assay relative to control
Assay type: cell-based, Hepatocyte
Details: read-out: Activity

[
  {
    "compound": "Cc1c(C)c2c(c(C)c1O)CCC(C)(CN1C(=O)S/C(=C\\c3ccc(O)cc3)C1=O)O2 (racemic)",
    "viability at 1.5 h, 200 µM [%]": 103
  },
  {
    "compound": "Cc1c(C)c2c(c(C)c1CCCCCCN)CCC(C)(COc1ccc(/C=C3\\SC(=O)N(C)C3=O)cc1)O2.O=C(O)C(F)(F)F (racemic)",
    "viability at 1.5 h, 200 µM [%]": 82.7
  },
  {
    "compound": "Cc1c(C)c2c(c(C)c1O)CCC(C)(COc1ccc(/C=C3\\SC(=O)N(C)C3=O)cc1)O2 (racemic)",
    "viability at 1.5 h, 200 µM [%]": 127
  },
  {
    "compound": "Cc1c(C)c2c(c(C)c1CCCCCCN)CCC(C)(COc1ccc(/C=C3\\SC(=O)NC3=O)cc1)O2.O=C(O)C(F)(F)F (racemic)",
    "viability at 1.5 h, 200 µM [%]": 79.9
  },
  {
    "compound": "Cc1c(C)c2c(c(C)c1O)CCC(C)(COc1ccc(/C=C3\\SC(=O)NC3=O)cc1)O2 (stereo not given)",
    "viability at 1.5 h, 200 µM [%]": 43.1
  }
]

Ref: ChEMBL document CHEMBL3297735
